Where do these numbers come from? They come from ChEMBL document CHEMBL1157539.

system: HepG2; test: GSK_TCMDC: Percent inhibition of human HepG2 cell line. Test compounds present at 10uM.; format: functional
Quick reference: Inhibition of the listed items.
property_measured: Inhibition (%)

CCC(Cc1cnc2nc(N)nc(N)c2n1)c1ccc(C(=O)N[C@@H](CCC(=O)O)C(=O)O)cc1 (stereo not given in full) [EDATREXATE] = 64
Cc1c(Cl)cccc1N=C(S)NN=Cc1ccccn1 = 58
CN(C)c1ccc(N2C(N)=NC(N)=NC23CCCC3)cc1.Cl = 1
Fc1ccc2[nH]c(-c3cccc(-c4ccc(CN5CCC(CCN6CCCCC6)CC5)cc4)c3)nc2c1.O=C(O)C(F)(F)F = 91
COc1ccc(CNC2Cc3ccccc3C2)cc1-c1ccc(OC)c(S(=O)(=O)NCCN2CCCC2)c1.O=C(O)C(F)(F)F = 31
Cc1cccnc1CNc1nccc2c(C)c(C)[nH]c12.Cl = 27
O=C(/C=C/c1ccc(Cl)c(Cl)c1)N1CCC(NCc2c[nH]c3ccccc23)CC1 = 36
O=C(Nc1ccc(Cl)c(C(F)(F)F)c1)c1ccc(C(=O)Nc2ccc(Cl)c(C(F)(F)F)c2)cc1 = 9
COc1c(CCNCCCCNCCc2cc(Cl)c3ccccc3c2OC)cc(Cl)c2ccccc12.CS(=O)(=O)O = 99
COc1ccc(CNc2ncc(-c3ccsc3)c(-c3nccs3)n2)cc1OC = 10
CCN(CC)/C(=N/C(=N)Nc1ccc(C)cc1)NCCCCCCN/C(=N\C(=N)Nc1ccc(C)cc1)N(CC)CC = 10
CCCCCCN1CCCN(Cc2ccc(C(=O)Nc3ccc(CC)cc3)cc2)CC1.O=C(O)C(F)(F)F = 53
CCNc1cc(C(=O)N[C@@H](Cc2ccoc2)[C@H](O)CNC(C)CCCC(C)C)cc(N2CCCCS2(=O)=O)c1.Cl (stereo not given in full) = 0
O=S(=O)(c1ccccc1C(F)(F)F)C1CC2CCC(C1)N2S(=O)(=O)c1ccc(Cl)c(C(F)(F)F)c1 (stereo not given) = 4
O=C(Nc1ccc(-c2cccc(-c3nc4cc(F)ccc4[nH]3)c2)cc1)Nc1ccc(F)c(F)c1F = 70
CC(=O)NC1=NC(C)(C)N(OCc2ccc(Cl)c(Cl)c2)C(NC(C)=O)=N1 = 68
CCCn1c(O)nnc1SCC(=O)Nc1cc(C(F)(F)F)ccc1Cl = 0
c1ccc(-c2cccnn2)cc1 = 0
O=C(Nc1ccc(CCNC2=NCCN2)cc1)Nc1ccc(CCNC2=NCCN2)cc1 = 6
O=C(NCCCN1CCOCC1)c1cccc(Nc2nccc(Nc3ccc(Oc4ccccc4)cc3)n2)c1 = 34
